# Test system: CAKI-1
# METHOD_NOTES: NCI tumour cell line growth inhibition, 48 h
Active and inactive are the calls of the source. Cut-off read from the data, not from the text of the source: active = GI50 up to about 1.1 µM and inactive = higher.
Outcome codes: active, inactive

- MOLECULE: "CC(C)OP(=O)(OC(C)C)/C(=N/Nc1ccccc1[N+](=O)[O-])NCCN/C(=N\\Nc1ccccc1[N+](=O)[O-])P(=O)(OC(C)C)OC(C)C"
  GROUP: "inactive"
- MOLECULE: "NC(=O)C12CCC1C1CCCCC12N1CCOCC1 (centres undefined)"
  GROUP: "inactive"
- MOLECULE: "CC(NC(NC(C)C12CC3CC(CC(C3)C1)C2)=C(C(Cl)=C(Cl)Cl)[N+](=O)[O-])C12CC3CC(CC(C3)C1)C2 (centres undefined)"
  GROUP: "inactive"
- MOLECULE: "N#Cc1nc(CSCc2ccccc2)oc1N"
  GROUP: "inactive"
- MOLECULE: "COC(=O)[C@@H]1OC(C)(c2ccccc2)O[C@H]1C(=O)OC"
  GROUP: "inactive"
- MOLECULE: "CC(C)C1CNC(=O)C2(/C=N/C(C(C)C)CNC(=O)C3(/C=N/1)CCCO3)CCCO2 (centres undefined)"
  GROUP: "inactive"
- MOLECULE: "Nc1nc(Cl)cc(Nc2ccc3c(c2)CCC3)n1"
  GROUP: "inactive"
- MOLECULE: "CC(=O)/C=C(/C=N/O)c1ccccc1"
  GROUP: "inactive"
- MOLECULE: "Oc1ccc(Cl)cc1C1=NC(NCN2CCN(CNC3=NC(c4ccccc4)CC(c4cc(Cl)ccc4O)=N3)CC2)=NC(c2ccccc2)C1 (centres undefined)"
  GROUP: "inactive"
- MOLECULE: "O=C1CSC(c2ccc([N+](=O)[O-])cc2)N1c1nc(-c2ccc3c(c2)CCCC3)cs1 (centres undefined)"
  GROUP: "inactive"
- MOLECULE: "CC(=O)c1ccc(NC(=O)C(=O)C(C(=O)c2ccc(Cl)c(Cl)c2)C2OC(=O)c3ccccc32)cc1 (centres undefined)"
  GROUP: "inactive"
- MOLECULE: "COc1ccccc1N1C(=O)/C(=C\\c2ccccc2)SC1c1cc(OC)c(OC)c(OC)c1 (centres undefined)"
  GROUP: "inactive"
- MOLECULE: "COc1ccc2nc3ccc(OC)cc3c(SCC3CO3)c2c1 (centres undefined)"
  GROUP: "inactive"
- MOLECULE: "CSc1sc(=S)sc1SC"
  GROUP: "active"
- MOLECULE: "CCN(CC)CCNc1ccc2ncn3c4ccc(O)cc4c(=O)c1c23"
  GROUP: "active"
- MOLECULE: "NP1(Oc2ccc(F)cc2)=NP(N)(Oc2ccc(F)cc2)=NP(Oc2ccc(F)cc2)(Oc2ccc(F)cc2)=N1 (centres undefined)"
  GROUP: "inactive"
- MOLECULE: "O=c1c2ccccc2c(=O)c2c1cc(Cl)c1[nH]c3c([nH]c12)c(Cl)cc1c(=O)c2ccccc2c(=O)c13"
  GROUP: "inactive"
- MOLECULE: "Oc1ncnc2c1sc(=S)n2-c1ccccc1"
  GROUP: "inactive"
- MOLECULE: "C[C@@](O)(/C=C/[C@H]1CC=CC(=O)O1)[C@@H](C[C@@H](O)\\C=C/C=C\\C=C\\CO)OP(=O)(O)O [FOSTRIECIN SODIUM]"
  GROUP: "inactive"

###

# Test system: Malme-3M
# METHOD_NOTES: NCI tumour cell line growth inhibition, 48 h
Activity calls are given as the source filed them. No stated cut-off is given here; in the data, active = GI50 up to about 1.1 µM and inactive = higher.
Outcome codes: active, inactive

- COMPOUND: "O=C1c2ccccc2C(=O)c2sc(Nc3cccc(Cl)c3)nc21"
  GROUP: "inactive"
- COMPOUND: "Nc1c(-c2cccc3ccccc23)c2ccc([N+](=O)[O-])cc2c(=O)n1-c1nc2ccccc2s1"
  GROUP: "inactive"
- COMPOUND: "Cc1cnc2c(C)ccc([N+](=O)[O-])c2c1NCCCN(C)C"
  GROUP: "inactive"
- COMPOUND: "[N-]=[N+]=Nc1cc(=O)n2c3c(cccc13)CCC2"
  GROUP: "inactive"
- COMPOUND: "O=C(OC1OC2COC(=O)c3cc(O)c(O)c(O)c3-c3c(cc(O)c(O)c3O)C(=O)OC3C2OC(=O)[C@@]24CC(=O)[C@@](O)(OC25C(=O)O[C@H]2[C@@H](O)CO[C@@]25O)C2(O)Oc5c(O)c(O)cc(c5C24)C(=O)OC13)c1cc(O)c(O)c(O)c1 (stereo not given in full)"
  GROUP: "inactive"
- COMPOUND: "Cc1cn2c(=O)c3ncn(C4OC(CO)C(O)C4O)c3n(C)c2n1 (stereo not given)"
  GROUP: "inactive"
- COMPOUND: "O=S(O)CCCCCSSc1ccc(Cl)cc1"
  GROUP: "inactive"
- COMPOUND: "O=C(OC1CCC(=C2SCCCS2)[C@H]1C1SCCCS1)c1ccccc1 (stereo not given in full)"
  GROUP: "inactive"
- COMPOUND: "Nc1ccccc1C(=O)CC1OC(=O)c2ccccc21 (stereo not given)"
  GROUP: "inactive"
- COMPOUND: "O=C(N/N=C/c1ccc(Cl)cc1)c1ccccc1Nc1ccccc1C(=O)N/N=C/c1ccc(Cl)cc1"
  GROUP: "inactive"
- COMPOUND: "CC(NC(NC(C)C12CC3CC(CC(C3)C1)C2)=C(C(Cl)=C(Cl)Cl)[N+](=O)[O-])C12CC3CC(CC(C3)C1)C2 (stereo not given)"
  GROUP: "inactive"
- COMPOUND: "COC(=O)C1OC(O[C@H]2CC[C@]3(C)[C@H]4CC=C5[C@@H]6CC(C)(C)CC[C@]6(C(=O)OC)CC[C@@]5(C)[C@]4(C)CC[C@H]3C2(C)C)C(O)C(O)C1O (stereo not given in full)"
  GROUP: "inactive"
- COMPOUND: "COC(=O)CNC(=O)CCSc1nnc(COc2ccc(Cl)cc2)n1-c1ccccc1"
  GROUP: "inactive"
- COMPOUND: "O=[N+]([O-])c1ccccc1S(=O)(=O)c1cc(Cl)cc2c1NCCC2"
  GROUP: "inactive"
- COMPOUND: "C[C@]12CCC3c4ccc(O)cc4CC[C@H]3C1CC(=O)N(N)C2=O (stereo not given in full)"
  GROUP: "inactive"
- COMPOUND: "O=C(O)c1ccc(C2C3C=CC(C3)C2[N+](=O)[O-])cc1 (stereo not given)"
  GROUP: "inactive"
- COMPOUND: "CC1(C)C=C(/C=N/Nc2ccc(Br)cc2)C(C#N)=C(O)C1(C#N)C#N"
  GROUP: "inactive"
- COMPOUND: "CC[N+](CC)(CCNCC(N)=O)CC(N)=O"
  GROUP: "inactive"
- COMPOUND: "Cc1cc(N(CCC#N)CCC#N)ccc1/N=N/c1ccc(Br)cc1"
  GROUP: "inactive"
- COMPOUND: "N=C(N)NS(=O)(=O)c1ccc(NC(=O)c2ccc(Cl)c3c(Nc4ccc(S(=O)(=O)N=C(N)N)cc4)c4ccccc4nc23)cc1"
  GROUP: "inactive"
- COMPOUND: "CC1=C(O)/C(=C/C(C)CCC/C(C)=C/C=C/C(C)CCCc2ccoc2)OC1=O (stereo not given)"
  GROUP: "inactive"
- COMPOUND: "CC(=O)C1=C(C)N(c2ccccc2)C2(O)C=CC(O)=C3C(=O)c4ccccc4C(=O)C312 (stereo not given)"
  GROUP: "active"
- COMPOUND: "COc1ccc([C@@H]2CC(=O)NCCCNCCCCNCCCN2)cc1"
  GROUP: "inactive"
- COMPOUND: "COc1cccc(C(=O)Oc2ccc(OS(=O)(=O)c3ccc(C)cc3)cc2)c1C#N"
  GROUP: "inactive"
- COMPOUND: "COc1ccc(N2C(=O)C3c4[nH]c5cc(C)ccc5c4C4CCC(C(C)(C)C)CC4C3C2=O)cc1 (stereo not given)"
  GROUP: "inactive"

###

# System: MDA-N
# METHOD_NOTES: NCI tumour cell line growth inhibition, 48 h
Activity calls are given as the source filed them. Rule as the data show it: active = GI50 up to about 1.1 µM and inactive = higher.
VALUE_KIND: GI50

- COMPOUND: "N#CCCN(CCC#N)c1ccc(/C=C2\\N=C(c3ccccc3)N(c3ccccn3)C2=O)cc1"
  ENDPOINT_VALUE: "> 100 µM (inactive)"
- COMPOUND: "CCOC(=O)C12CCC(c3c(C)cccc3C)(O1)C(C(=O)OC)=C2C(=O)OC (centres undefined)"
  ENDPOINT_VALUE: "0.484 µM (active)"
- COMPOUND: "Cc1cc2c3ccccc3[nH]c2c2ccnc(C)c12"
  ENDPOINT_VALUE: "1.71 µM (inactive)"
- COMPOUND: "CC1OC(OC2C(O)COC(OC3C(C)OC(OC4C(OC(=O)[C@]56CCC(C)(C)C[C@@H]5C5=CCC7[C@@]8(C)C[C@H](O)[C@H](OC9OC(CO)C(O)C(O)C9O)[C@@](C)(CO)[C@@H]8CC[C@@]7(C)[C@]5(C)CC6)OCC(O)C4O)C(O)C3O)C2O)C(O)C(O)C1O (some centres undefined)"
  ENDPOINT_VALUE: "20.5 µM (inactive)"
- COMPOUND: "COCN1C(=O)[C@@H]2CCCN2C(=O)c2cc(Cl)ccc21"
  ENDPOINT_VALUE: "> 100 µM (inactive)"
- COMPOUND: "CSC1=N/C(=C\\c2ccc(Cl)cc2)C(=O)N1CN1CCOCC1"
  ENDPOINT_VALUE: "47.8 µM (inactive)"
- COMPOUND: "NC1C/C(=N\\O)c2c(Cl)sc(Cl)c21 (centres undefined)"
  ENDPOINT_VALUE: "18 µM (inactive)"
- COMPOUND: "CC1(C)C=C(/C=N/Nc2ccc(Br)cc2)C(C#N)=C(O)C1(C#N)C#N"
  ENDPOINT_VALUE: "42.2 µM (inactive)"
- COMPOUND: "CCN(CC)C(=S)Nc1ccc(-c2cc3ccc(O)cc3oc2=O)cc1"
  ENDPOINT_VALUE: "24.8 µM (inactive)"
